Target: Peroxisome proliferator-activated receptor gamma (Homo sapiens) (UniProt P37231)
Sequence (whole entry): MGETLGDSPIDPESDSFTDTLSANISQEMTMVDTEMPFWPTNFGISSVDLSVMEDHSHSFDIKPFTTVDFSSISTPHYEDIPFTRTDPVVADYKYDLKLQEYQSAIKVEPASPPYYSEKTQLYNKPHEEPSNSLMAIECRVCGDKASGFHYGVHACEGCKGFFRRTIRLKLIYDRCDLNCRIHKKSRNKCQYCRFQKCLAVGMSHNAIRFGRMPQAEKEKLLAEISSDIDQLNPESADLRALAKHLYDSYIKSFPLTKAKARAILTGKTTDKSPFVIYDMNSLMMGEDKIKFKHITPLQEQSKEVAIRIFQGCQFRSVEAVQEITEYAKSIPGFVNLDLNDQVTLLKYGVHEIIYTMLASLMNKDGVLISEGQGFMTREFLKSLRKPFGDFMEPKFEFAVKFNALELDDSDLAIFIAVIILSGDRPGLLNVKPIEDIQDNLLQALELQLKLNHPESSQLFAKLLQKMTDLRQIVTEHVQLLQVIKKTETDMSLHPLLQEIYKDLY
Test: Covalent binding affinity to N-terminal His6-tagged PPARgamma ligand binding domain (195 to 477 amino acid residues) at 20 uM after 60 to 180 mins by RP-LC-MS analysis
Activity calls are given as the source filed them. The calls are words filed in the database; no cut-off is given here.
PROPERTY MEASURED: Activity

SMILES REPR | EXPERIMENTAL TARGET | PROPERTY MEASURED | RECORDED MEASUREMENT
CCC1=C[C@@](CC)(C[C@@H](CC)CCC(C)=O)OC1=O | Peroxisome proliferator-activated receptor gamma (Homo sapiens) (UniProt P37231) | Activity | inactive
CCC1=C[C@@](CC)(C[C@@H](CC)CCC(C)=O)O/C1=C\C(=O)OC | Peroxisome proliferator-activated receptor gamma (Homo sapiens) (UniProt P37231) | Activity | inactive
CCC1=C[C@@](CC)(C[C@H](/C=C/C(C)=O)CC)OC1=O | Peroxisome proliferator-activated receptor gamma (Homo sapiens) (UniProt P37231) | Activity | Active
CCC1=C[C@@](CC)(C[C@H](/C=C/C(C)=O)CC)O/C1=C\C(=O)OC | Peroxisome proliferator-activated receptor gamma (Homo sapiens) (UniProt P37231) | Activity | Active
